Examples of compounds with documented log10(Kd) follow.
Target: PYR1 (Arabidopsis thaliana, UniProt O49686)
Sequence (O49686 whole entry): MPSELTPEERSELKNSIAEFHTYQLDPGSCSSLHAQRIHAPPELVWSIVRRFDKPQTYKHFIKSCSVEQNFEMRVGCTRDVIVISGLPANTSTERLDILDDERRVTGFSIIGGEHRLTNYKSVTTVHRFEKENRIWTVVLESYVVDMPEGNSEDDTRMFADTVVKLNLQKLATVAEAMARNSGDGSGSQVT
Assay: biochemical
Set-up: Fluorescence competition displacing lebactin (1 uM) from PYR1 (8 uM); Kd from double-log titration fit
Conditions: 1 uM lebactin, 8 uM PYR1; read-out: F(GhitFluors)/Kd/μM
Scale type: logarithmic (base 10). Underlying Kd unit: µM.

1. COc1ccc(C(=O)Nc2cccc3c2C(=O)N(C2CCC(=O)NC2=O)C3=O)cc1OC (stereo not drawn) [173b]; 0.19
2. O=[N+]([O-])c1cc(Br)cc([N+](=O)[O-])c1NS(=O)(=O)c1cccc(Cl)c1 [361a]; 0.92
3. Cc1ccccc1S(=O)(=O)Nc1c([N+](=O)[O-])cc(Br)cc1[N+](=O)[O-] [368a]; 0.67
4. O=[N+]([O-])c1cc(Br)cc([N+](=O)[O-])c1NS(=O)(=O)c1ccccc1Cl [470a]; 0.93
5. CC(C)(C)c1ccc(S(=O)(=O)Nc2c([N+](=O)[O-])cc(Br)cc2[N+](=O)[O-])cc1 [145a]; 1.58

Now, please, on to the next compound.
Req: GET /values?readout=log10(Kd)&item= O=[N+]([O-])c1cc(Br)cc([N+](=O)[O-])c1NS(=O)(=O)c1cccc(F)c1 [260a]
Resp: 0.60

* * *

Biological target: PYR1 (Arabidopsis thaliana)
Experiment: biochemical
Set-up: Isothermal titration calorimetry of compound binding to PYR1
Details: read-out: ITC/Kd/μM
Decision: Kd beneath 10 µM gives fulfilled; Kd meeting or exceeding 10 µM gives not fulfilled.

Req: # TODO verify Kd < 10 µM strictly for this compound: Cc1ccccc1S(=O)(=O)Nc1c([N+](=O)[O-])cc(Br)cc1[N+](=O)[O-] [368a]
Resp: not fulfilled

Req: # TODO verify Kd < 10 µM strictly for this compound: O=[N+]([O-])c1cc(Br)cc([N+](=O)[O-])c1NS(=O)(=O)c1cccc(F)c1 [260a]
Resp: fulfilled

Req: # TODO verify Kd < 10 µM strictly for this compound: O=[N+]([O-])c1cc(Br)cc([N+](=O)[O-])c1NS(=O)(=O)c1ccccc1Cl [470a]
Resp: fulfilled

Req: # TODO verify Kd < 10 µM strictly for this compound: O=[N+]([O-])c1cc(Br)cc([N+](=O)[O-])c1NS(=O)(=O)c1cccc(Cl)c1 [361a]
Resp: fulfilled

Req: # TODO verify Kd < 10 µM strictly for this compound: CC(C)(C)c1ccc(S(=O)(=O)Nc2c([N+](=O)[O-])cc(Br)cc2[N+](=O)[O-])cc1 [145a]
Resp: not fulfilled
